Origin of measurements: PubChem BioAssay AID1963424

Would you mind telling me the reported viability, T/C of each entry?
- Tested on: 327498-153-R-J2-PDC complex spheroid growth, % test/control
- RUN_DESCRIPTION: Anticancer human tumor 327498-153-R-J2-PDC patient-derived uterine carcinosarcoma cell line growth inhibition [Asc]
- CONDITION_NOTES: second compound 0.316 µM; first compound 0.03 µM; hits give low values
Write down the numeric answer in % and omit the unit.

Req: What does the record list as viability, T/C for Cc1nc(N2CCC3(CC2)COC(C)C3N)c(CO)nc1Sc1ccnc(N)c1Cl (configuration not stated) + Cc1c(S(C)(=O)=O)c(-c2cc(F)cc(N3CCN(c4ccc(NS(=O)(=O)c5ccc(NC(CCN6CCC(C(=O)OCCCP(=O)(O)O)CC6)CSc6ccccc6)c(S(=O)(=O)C(F)(F)F)c5)cc4)CC3)c2)c(-c2ccc(Cl)cc2)n1C(C)C ?
Resp: 94.2

Req: What does the record list as viability, T/C for CCN1C(C(=O)NC23CCC(C(=O)O)(CC2)CC3)C(c2cccc(Cl)c2F)C2(C(=O)Nc3cc(Cl)ccc32)C12CCCCC2 (configuration not stated) + Cc1c(S(C)(=O)=O)c(-c2cc(F)cc(N3CCN(c4ccc(NS(=O)(=O)c5ccc(NC(CCN6CCC(C(=O)OCCCP(=O)(O)O)CC6)CSc6ccccc6)c(S(=O)(=O)C(F)(F)F)c5)cc4)CC3)c2)c(-c2ccc(Cl)cc2)n1C(C)C ?
Resp: 89

---

- Tested on: 327498-153-R-J2-PDC complex spheroid growth, % test/control
- RUN_DESCRIPTION: Anticancer human tumor 327498-153-R-J2-PDC cell line growth inhibition [Asc];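 also: spheroids exposed to compound for 7 days after 3 days of growth; 100% = DMSO vehicle control wells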
- CONDITION_NOTES: second compound 0.0949 µM; first compound 0.01 µM; hits give low values
- Source text: Multicellular complex tumor spheroid response to apoptosis pathway targeting inhibitors Alrizomadlin, Pelcitoclax, and Dasminapant in combination with a variety of drugs and investigational agents in selected tumor cell lines […] Compounds. […] If the clinical Cmax for an agent had not been determined, the highest concentration tested was 10 microM. […]
RECORDED_METRIC: viability, T/C (%)
Write down the numeric answer in % and omit the unit.

Req: What does the record list as viability, T/C for Cn1ncnc1[C@H]1c2n[nH]c(=O)c3cc(F)cc(c23)N[C@@H]1c1ccc(F)cc1 + CCN1C(C(=O)NC23CCC(C(=O)O)(CC2)CC3)C(c2cccc(Cl)c2F)C2(C(=O)Nc3cc(Cl)ccc32)C12CCCCC2 ?
Resp: 17.4

Req: What does the record list as viability, T/C for CCN1CCN(Cc2ccc(Nc3ncc(F)c(-c4cc(F)c5nc(C)n(C(C)C)c5c4)n3)nc2)CC1 + CCN1C(C(=O)NC23CCC(C(=O)O)(CC2)CC3)C(c2cccc(Cl)c2F)C2(C(=O)Nc3cc(Cl)ccc32)C12CCCCC2 ?
Resp: 68.4

Req: What does the record list as viability, T/C for COc1c(OCCCN2CCOCC2)ccc2c3n(c(=NC(=O)c4cnc(N)nc4)nc12)CCN3 + CCN1C(C(=O)NC23CCC(C(=O)O)(CC2)CC3)C(c2cccc(Cl)c2F)C2(C(=O)Nc3cc(Cl)ccc32)C12CCCCC2 ?
Resp: 73.3

Req: What does the record list as viability, T/C for CNC(C)C(=O)NC1CN(S(=O)(=O)c2cccc(S(=O)(=O)N3CCC4CCC(C(=O)NC(c5ccccc5)c5ccccc5)N4C(=O)C(NC(=O)C(C)NC)C3)c2)CCC2CCC(C(=O)NC(c3ccccc3)c3ccccc3)N2C1=O (stereo unspecified) + CCN1C(C(=O)NC23CCC(C(=O)O)(CC2)CC3)C(c2cccc(Cl)c2F)C2(C(=O)Nc3cc(Cl)ccc32)C12CCCCC2 ?
Resp: 70.2

Req: What does the record list as viability, T/C for O=C(c1ccc(F)c(F)c1Nc1ccc(I)cc1F)N1CC(O)([C@@H]2CCCCN2)C1 + CCN1C(C(=O)NC23CCC(C(=O)O)(CC2)CC3)C(c2cccc(Cl)c2F)C2(C(=O)Nc3cc(Cl)ccc32)C12CCCCC2 ?
Resp: 61.4

Req: What does the record list as viability, T/C for NC1CCC(NC2CC2c2ccccc2)CC1 (stereo unspecified) + CCN1C(C(=O)NC23CCC(C(=O)O)(CC2)CC3)C(c2cccc(Cl)c2F)C2(C(=O)Nc3cc(Cl)ccc32)C12CCCCC2 ?
Resp: 84.9
